target: CCR2 (Homo sapiens (Human), UniProt P41597); experiment: Calcium activity assayed on the FLIPR Tetra in HEK-Gqi5 cells stably expressing CCR2; type: cell-based; conditions: FLIPR Tetra calcium assay
Sequence (P41597 whole entry, species assumed): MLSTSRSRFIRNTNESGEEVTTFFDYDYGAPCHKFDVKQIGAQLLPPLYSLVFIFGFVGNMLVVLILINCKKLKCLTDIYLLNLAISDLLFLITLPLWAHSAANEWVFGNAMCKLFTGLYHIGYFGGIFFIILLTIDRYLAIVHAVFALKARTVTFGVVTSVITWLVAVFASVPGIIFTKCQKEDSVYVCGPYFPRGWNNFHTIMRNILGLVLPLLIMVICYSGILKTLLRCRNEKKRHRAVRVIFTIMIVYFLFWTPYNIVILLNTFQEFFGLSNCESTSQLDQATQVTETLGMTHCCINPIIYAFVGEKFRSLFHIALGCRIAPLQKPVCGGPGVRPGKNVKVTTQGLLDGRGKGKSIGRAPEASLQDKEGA
So basically: is CCR2 % ANTAGONISM under 90%? Then Condition met. Not under? Then Condition not met.

Example entries and their recorded answers appear below.
Nc1cc(C[S+]([O-])c2ccc(Cl)cc2NS(=O)(=O)c2cc3ccccc3o2)n[nH]1 (stereo not shown)    Condition not met
O=S(=O)(Nc1cc(Cl)ccc1SCc1cccnc1)c1cc2ccccc2o1    Condition not met
CN(C)C(=O)CCSc1ccc(Cl)cc1NS(=O)(=O)c1ccc(Cl)cc1F    Condition met
CS(=O)(=O)c1ccc(Cl)cc1NS(=O)(=O)c1ccc(C(F)(F)F)c([N+](=O)[O-])c1    Condition not met
CSc1ccc(Cl)cc1NS(=O)(=O)c1ccc(F)cc1F    Condition met

Q: Please indicate whether the reported CCR2 % ANTAGONISM of Nc1ccccc1C[S+]([O-])c1ccc(Cl)cc1NS(=O)(=O)c1cc2ccccc2o1 (stereo not shown) is strictly below 90%.
Result: Condition not met

Q: Please indicate whether the reported CCR2 % ANTAGONISM of "O=S(=O)(CCc1cn[nH]c1)c1ccc(Cl)cc1NS(=O)(=O)c1cc2ccccc2o1" is strictly below 90%.
Result: Condition not met

Q: Please indicate whether the reported CCR2 % ANTAGONISM of "Nc1cccc(CS(=O)(=O)c2ccc(Cl)cc2NS(=O)(=O)c2ccc(Cl)cc2F)c1" is strictly below 90%.
Result: Condition not met

Q: Please indicate whether the reported CCR2 % ANTAGONISM of C[S+]([O-])c1ccc(Cl)cc1NS(=O)(=O)c1ccc(Cl)cc1F (stereo not shown) is strictly below 90%.
Result: Condition not met

Q: Please indicate whether the reported CCR2 % ANTAGONISM of "O=S(=O)(Nc1cc(Cl)ccc1SCc1c[nH]cn1)c1cc2ccccc2o1" is strictly below 90%.
Result: Condition not met

Q: Please indicate whether the reported CCR2 % ANTAGONISM of CC[S+]([O-])c1ccc(Cl)cc1NS(=O)(=O)c1ccc(Cl)c(C(F)(F)F)c1 (stereo not shown) is strictly below 90%.
Result: Condition met

Q: Please indicate whether the reported CCR2 % ANTAGONISM of "Nc1nc(CS(=O)(=O)c2ccc(Cl)cc2NS(=O)(=O)c2cc3ccccc3o2)cs1" is strictly below 90%.
Result: Condition not met

Q: Please indicate whether the reported CCR2 % ANTAGONISM of "Nc1nnc(CSc2ccc(Cl)cc2NS(=O)(=O)c2cc3ccccc3o2)[nH]1" is strictly below 90%.
Result: Condition not met

* * *

molecular target: CCR2 (Homo sapiens (Human), UniProt P41597); assay: Calcium activity assayed on the FLIPR Tetra in HEK-Gqi5 cells stably expressing CCR2; format: cell-based; details: FLIPR Tetra calcium assay
Measure name: CCR2 % ANTAGONISM (%)
Return type: number; implicit unit %.

Answered cases to consult:
Nc1ccccc1CS(=O)(=O)c1ccc(Cl)cc1NS(=O)(=O)c1cc2ccccc2o1    98
O=S(=O)(Nc1cc(Cl)ccc1[S+]([O-])Cc1ccccn1)c1ccc(Cl)c(C(F)(F)F)c1 (stereo not drawn)    83
O=S(=O)(Cc1ccccn1)c1ccc(Cl)cc1NS(=O)(=O)c1cc2ccccc2o1    100

Q: Request the reported CCR2 % ANTAGONISM associated with CC(=O)Nc1nc(CS(=O)(=O)c2ccc(Cl)cc2NS(=O)(=O)c2cc3ccccc3o2)cs1 [Compound 237]
Result: 87

Q: Request the reported CCR2 % ANTAGONISM associated with O=[N+]([O-])c1cc(C[S+]([O-])c2ccc(Cl)cc2NS(=O)(=O)c2cc3ccccc3o2)n[nH]1 (stereo not drawn)
Result: 94

Q: Request the reported CCR2 % ANTAGONISM associated with O=S(=O)(Nc1cc(Cl)ccc1[S+]([O-])Cc1cc[nH]n1)c1cc2ccccc2o1 (stereo not drawn)
Result: 99
